Listing of recorded Dielectric Constant, 23° C. by entry.
# protocol-text: Dielectric constant of glycols and derivatives
# Format: physicochemical
# assay-conditions: neat glycol/derivative, 23° C.
Give the value as a plain number.

Study these solved cases before continuing.
compound: CCC(=O)OCCCCO [Butylene Glycol Monopropionate]
Dielectric Constant, 23° C.: 11.72
--
compound: CCCC(O)CO (centres unmarked)
Dielectric Constant, 23° C.: 18.2
--
compound: CCCCOCCOCCO
Dielectric Constant, 23° C.: 10.59

## Input Need Dielectric Constant, 23° C. of CCOCCOCCO , thanks.
## Output 13.69

## Input Could you tell me which Dielectric Constant, 23° C. is on file for CCCCC(O)CO (centres unmarked) ?
## Output 15.1
